The values you see were collected from paper PMC5698726.

# system.under.test: caspase-7 (C7) (Homo sapiens)
# Construct: mature (processed, active) caspase-7, dimer, 6xHis tag; expression details only in supplement
# Sequence (P55210 24-198): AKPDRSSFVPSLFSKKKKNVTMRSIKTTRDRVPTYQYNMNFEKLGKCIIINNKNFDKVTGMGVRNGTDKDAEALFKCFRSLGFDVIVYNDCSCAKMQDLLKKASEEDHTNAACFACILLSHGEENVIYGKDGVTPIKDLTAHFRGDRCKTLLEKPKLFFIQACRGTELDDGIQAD
# Sequence (P55210 207-303): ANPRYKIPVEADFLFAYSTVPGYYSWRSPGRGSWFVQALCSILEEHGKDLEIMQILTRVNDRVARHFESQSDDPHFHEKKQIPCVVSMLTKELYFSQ
# experiment.summary: SPR OneStep injection, His-captured protein, […] fit
# experimental.context: read-out: Dissociation constant
endpoint: Kd (mM)

P: CC(=O)c1ccccc1Sc1ccccc1C(=O)O
Q: O=C(O)C1c2ccccc2Oc2ccccc21
Query block: # min-compare on Kd between P and Q Identify your selection by its label.
Result block: Q
